Taken from patent US20250084092A1.

target: NLRP3 inflammasome (Homo sapiens); construct: endogenous in cells; assay: THP-1 IL-1β production inhibition test; conditions: PMA-treated THP-1 cells, LPS 50 ng/mL + ATP 5 mM, 2 hours, IL-1β in supernatant by ELISA
QUANTITY_MEASURED: IC50 (nM)

| MOLECULE | QUANTITY_UNIT | OBSERVED_RESULT |
| --- | --- | --- |
| Oc1cc(OC(F)(F)F)ccc1-c1nnc(N[C@@H]2CCCC[C@H]2O)c2c1COCC2 [3(2)] | nM | 7 |

1: Oc1cc(C(F)(F)F)ccc1-c1nnc(N[C@@H]2CCCC[C@H]2O)c2c1COCC2 [2(2)]
2: C[C@]1(O)C[C@@H](Nc2nnc(-c3ccc(OC(F)(F)F)cc3O)c3c2CCOC3)C1 [57(2)]
Min IC50? 1 | 2 Your answer should be the label of the entry you select.
1

A: Oc1cc(C(F)(F)F)ccc1-c1nnc(N[C@@H]2CCCN(C3COC3)C2)c2c1CCCC2 [Example 97]
B: Oc1cc(C(F)F)ccc1-c1nnc(N[C@@H]2CCCC[C@H]2O)c2c1CCCC2 [Example 84]
Min IC50? A | B Your answer should be the label of the entry you select.
A
(A: 3.4 nM, B: 18 nM)

* * *

target: NLRP3 inflammasome (Homo sapiens); construct: endogenous in cells; experiment: THP-1 IL-1β production inhibition test; conditions: PMA-treated THP-1 cells, LPS 50 ng/mL + ATP 5 mM, 2 hours, IL-1β in supernatant by ELISA
QUANTITY_MEASURED: IC50 (nM)

Observe how each entry below is paired with its result.
| MOLECULE | QUANTITY_MEASURED | OBSERVED_RESULT |
| --- | --- | --- |
| Oc1cc(C(F)(F)F)ccc1-c1nnc(N[C@@H]2CCCN(C3CCC3)C2)c2c1CCCC2 [Example 71] | IC50 | 150 |
| Oc1cc(C(F)(F)F)ccc1-c1nnc(N[C@H]2CCCC[C@@H]2O)c2c1CCOC2 [66(2)] | IC50 | 180 |
| Oc1cc(Cl)ccc1-c1nnc(N[C@@H]2CCCC[C@H]2O)c2c1CCOC2 [Example 70] | IC50 | 2.1 |
| Oc1cc(OC(F)(F)F)ccc1-c1nnc(N[C@@H]2CCOC[C@H]2O)c2c1CCCC2 [Example 37] | IC50 | 18 |
| COc1ccc(-c2nnc(N[C@@H]3CCCC[C@H]3O)c3c2CCCC3)c(O)c1 [Example 28] | IC50 | 14 |

I: N#C[C@@H]1CCCC[C@H]1Nc1nnc(-c2ccc(C(F)(F)F)cc2O)c2c1CCOC2 [72(2)]
II: O=C1NCC[C@@H]1Nc1nnc(-c2ccc(C(F)(F)F)cc2O)c2c1CCCC2 [Example 50]
I need your help: which of the pair I , II has higher IC50? Your answer should be the label of the entry you select.
I
(I: 14 nM, II: 8.2 nM)

* * *

molecular target: NLRP3 inflammasome (Homo sapiens, UniProt Q96P20); construct: endogenous in cells; experiment: THP-1 IL-1β production inhibition test; conditions: PMA-treated THP-1 cells, LPS 50 ng/mL + ATP 5 mM, 2 hours, IL-1β in supernatant by ELISA
Sequence (Q96P20 whole entry): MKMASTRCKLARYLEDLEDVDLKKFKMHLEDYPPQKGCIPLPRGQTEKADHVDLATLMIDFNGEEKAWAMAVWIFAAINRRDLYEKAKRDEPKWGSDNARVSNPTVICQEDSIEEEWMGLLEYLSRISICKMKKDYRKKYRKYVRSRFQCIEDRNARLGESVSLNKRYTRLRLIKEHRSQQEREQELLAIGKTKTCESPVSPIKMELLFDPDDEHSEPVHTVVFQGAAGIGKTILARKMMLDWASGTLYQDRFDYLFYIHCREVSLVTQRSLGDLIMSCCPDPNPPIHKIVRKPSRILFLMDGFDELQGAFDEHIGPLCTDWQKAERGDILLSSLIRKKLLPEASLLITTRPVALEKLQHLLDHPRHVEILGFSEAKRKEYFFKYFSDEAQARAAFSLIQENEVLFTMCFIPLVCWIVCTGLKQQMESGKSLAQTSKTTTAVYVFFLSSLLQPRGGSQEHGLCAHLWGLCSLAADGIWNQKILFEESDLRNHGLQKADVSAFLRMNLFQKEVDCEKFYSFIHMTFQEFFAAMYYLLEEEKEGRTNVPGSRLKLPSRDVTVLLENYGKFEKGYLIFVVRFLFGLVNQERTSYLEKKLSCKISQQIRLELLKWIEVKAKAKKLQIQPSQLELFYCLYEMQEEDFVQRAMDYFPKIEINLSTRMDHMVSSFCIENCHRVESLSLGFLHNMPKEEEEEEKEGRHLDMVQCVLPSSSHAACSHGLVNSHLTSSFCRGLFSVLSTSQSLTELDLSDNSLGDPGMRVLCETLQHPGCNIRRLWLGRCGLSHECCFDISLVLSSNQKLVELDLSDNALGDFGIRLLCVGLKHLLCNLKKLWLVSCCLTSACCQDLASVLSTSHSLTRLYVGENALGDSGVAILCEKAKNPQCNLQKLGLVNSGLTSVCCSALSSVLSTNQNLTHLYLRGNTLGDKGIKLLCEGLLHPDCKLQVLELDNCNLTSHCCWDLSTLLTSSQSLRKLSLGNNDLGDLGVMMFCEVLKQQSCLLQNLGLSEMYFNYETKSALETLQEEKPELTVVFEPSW
QUANTITY_MEASURED: IC50 (nM)

Observe how each entry below is paired with its result.
| COMPOUND | TARGET_ENTITY | IC50 / nM |
| --- | --- | --- |
| Oc1cc(OC(F)F)ccc1-c1nnc(N[C@@H]2CCCC[C@H]2O)c2c1CCCC2 [Example 83] | NLRP3 inflammasome (Homo sapiens, UniProt Q96P20) | 4.8 |
| Oc1cc(OC(F)F)ccc1-c1nnc(N[C@@H]2CCCC[C@H]2O)c2c1CCCOC2 [Example 116] | NLRP3 inflammasome (Homo sapiens, UniProt Q96P20) | 4.4 |

P: Cc1ccc(-c2nnc(N[C@@H]3CCOC[C@H]3O)c3c2CCCCC3)c(O)c1 [Example 46]
Q: Oc1cc(C2CC2)ccc1-c1nnc(N[C@@H]2CCCC[C@H]2O)c2c1COCC2 [52(2)]
I need your help: which of the pair P , Q has higher IC50? Your answer should be the label of the entry you select.
Q
(Q: 27 nM, P: 11 nM)
